Assay: P. aeruginosa biofilm formation inhibitors, primary screen, strain PAO1, LB-PBS medium, absorbance 600 nm (AID 1176); note: test concentration not given here
Details: P. aeruginosa PAO1 growth/biofilm, A600, 12 h; higher = more signal
Entries and their z-score
endpoint: z-score

| molecule | assay_value |
| --- | --- |
| C=CCC(OC(C)=O)[C@@H]1[C@@H](N(Cc2ccc(-c3cccc(C(F)(F)F)c3)o2)C(=O)Cc2ccc(F)cc2)c2cc(OCCCO)ccc2N1C(=O)c1ccc(-c2ccccc2)cc1 (stereo not given in full) | 1.11 |
| CN1C(=O)C2C=CC(C(O)C3CC=CCC3)N(Nc3ccccc3)C2C1=O (stereo not given) | 0.847 |
| C=C[C@H](OC)[C@@H](OC(=O)Nc1ccc(SC)cc1)c1ccc(O)c(F)c1 | 1.88 |
| COCCOC(=O)N1C(=O)[C@@]2(c3cc(C#CCCO)ccc31)[C@H](c1ccc(OCCO)cc1)N1[C@H](c3ccccc3)[C@H](c3ccccc3)OC(=O)[C@H]1[C@@H]2C(=O)NC[C@H](O)c1ccccc1 | 1.39 |
| O=C1C2C=CC(C(O)c3ccccc3)N(n3cnnc3)C2C(=O)N1Cc1ccccc1 (stereo not given) | 1.87 |
| CCC1=C2CN(Cc3ccccc3Br)[C@@H]([C@@H](O)Cc3ccccc3)C2C=CCC1 (stereo not given in full) | -0.693 |
| COC(=O)[C@@]1(Cc2ccccc2N=[N+]=[N-])N=C(c2ccc(OCCCO)cc2)O[C@H]1c1ccccc1CN=[N+]=[N-] | 0.383 |
| Cc1ccc(N2C(=O)c3ccccc3[C@](C)(C(=O)NCC(C)C)[C@@H]2c2ccc(CO)cc2)nc1 | 0.14 |
| CC(C)NC(=O)[C@@]1(Cc2ccccc2I)c2ccccc2C(=O)N(C2CCCCC2)[C@H]1c1ccc(CO)cc1 | 0.593 |
| CCOC(=O)C1=CC[C@@H](c2ccc(-c3ccc(OCc4ccccc4)cc3)c(OC)c2)N(S(=O)(=O)c2ccc(C)cc2)[C@H]1c1ccccc1 | 0.325 |
| NC(=O)NCC#Cc1ccc2c(c1)[C@]1(C(=O)N2)[C@H](C(N)=O)[C@H]2C(=O)O[C@H](c3ccccc3)[C@H](c3ccccc3)N2[C@@H]1c1ccccc1OCCO | 0.75 |
| C=C(CCCC)/C(=C/C[C@H](OC(=O)c1ccncc1)c1cccc(OCCO)c1)c1cc(C(=O)OC)ccc1OC | -0.988 |
| CCOC(=O)C1=CCC(c2cccc3ccccc23)N(S(=O)(=O)c2ccc(C)cc2)C1 (stereo not given) | 0.518 |
| Cc1ccccc1C(O)C1C=CC2C(=O)N(c3ccccc3)C(=O)C2N1Nc1ccc(C#N)cc1 (stereo not given) | 1.26 |
| CC(c1ccccc1)C(O)C1C=CC2C(=O)N(C)C(=O)C2N1N(c1ccccc1)c1ccccc1 (stereo not given) | 0.419 |
| Cc1ccc(S[C@]2(C(=O)NC(C)C)CC(=O)N(C3Cc4ccccc4C3)[C@@H]2c2ccc(CO)cc2)cc1 | 0.229 |
| CCCN1C(=O)[C@@]2(CCS(=O)(=O)c3ccccc3)N=C(c3ccc(OCCCO)cc3)O[C@H]2c2ccccc21 | 0.469 |
| CCc1cccc(NC(=O)O[C@H]2[C@H](OC(=O)Nc3ccccc3)[C@@H](OC(=O)Nc3ccccc3)[C@@H](OC)O[C@@H]2CO)c1 | 0.497 |
| C#CCCCON=C1C[C@@H](O)[C@@H](O)[C@@H]2[C@@H]3C(=O)N(Cc4ccc5c(c4)OCO5)C(=O)[C@@H]3CC[C@H]12 | -0.708 |
| Cc1ccc(N2C(=O)c3ccccc3[C@@H](C(=O)NCC(F)(F)F)[C@@H]2c2ccc(CO)cc2)nc1 | 0.429 |
| COC(=O)[C@@]1(Cc2ccccc2CN=[N+]=[N-])N=C(c2ccc(OCCCO)cc2)O[C@H]1c1ccccc1N=[N+]=[N-] | 1.69 |
| C#C[C@H](O[Si](C#Cc1ccccc1)(C(C)C)C(C)C)c1ccccc1 | 0.738 |
| O=C1OCC=C[C@H]2OC34C=CCN(Cc5ccccc5)C(=O)[C@H]3N(CCO)C(=O)[C@@H]4[C@@H]12 (stereo not given in full) | 0.317 |
| CCOC(=O)C[C@H]1[C@H](OC(=O)c2ccccc2-c2ccccc2)[C@@H](NC(=O)c2ccc(-c3ccccc3)cc2)c2cc(OCCCO)ccc2N1C(=O)Cc1ccc(OC)cc1 | 0.2 |
| COCCCNC(=O)[C@@]1(c2ccc([N+](=O)[O-])cc2)CC(=O)N(C2CCCCC2)[C@@H]1c1ccc(CO)cc1 | 0.814 |
